- Measurement Target: PI3Kδ (p110δ/p85α) Recombinant Human Protein (Homo sapiens (Human))
- Sequence (O00329 whole entry): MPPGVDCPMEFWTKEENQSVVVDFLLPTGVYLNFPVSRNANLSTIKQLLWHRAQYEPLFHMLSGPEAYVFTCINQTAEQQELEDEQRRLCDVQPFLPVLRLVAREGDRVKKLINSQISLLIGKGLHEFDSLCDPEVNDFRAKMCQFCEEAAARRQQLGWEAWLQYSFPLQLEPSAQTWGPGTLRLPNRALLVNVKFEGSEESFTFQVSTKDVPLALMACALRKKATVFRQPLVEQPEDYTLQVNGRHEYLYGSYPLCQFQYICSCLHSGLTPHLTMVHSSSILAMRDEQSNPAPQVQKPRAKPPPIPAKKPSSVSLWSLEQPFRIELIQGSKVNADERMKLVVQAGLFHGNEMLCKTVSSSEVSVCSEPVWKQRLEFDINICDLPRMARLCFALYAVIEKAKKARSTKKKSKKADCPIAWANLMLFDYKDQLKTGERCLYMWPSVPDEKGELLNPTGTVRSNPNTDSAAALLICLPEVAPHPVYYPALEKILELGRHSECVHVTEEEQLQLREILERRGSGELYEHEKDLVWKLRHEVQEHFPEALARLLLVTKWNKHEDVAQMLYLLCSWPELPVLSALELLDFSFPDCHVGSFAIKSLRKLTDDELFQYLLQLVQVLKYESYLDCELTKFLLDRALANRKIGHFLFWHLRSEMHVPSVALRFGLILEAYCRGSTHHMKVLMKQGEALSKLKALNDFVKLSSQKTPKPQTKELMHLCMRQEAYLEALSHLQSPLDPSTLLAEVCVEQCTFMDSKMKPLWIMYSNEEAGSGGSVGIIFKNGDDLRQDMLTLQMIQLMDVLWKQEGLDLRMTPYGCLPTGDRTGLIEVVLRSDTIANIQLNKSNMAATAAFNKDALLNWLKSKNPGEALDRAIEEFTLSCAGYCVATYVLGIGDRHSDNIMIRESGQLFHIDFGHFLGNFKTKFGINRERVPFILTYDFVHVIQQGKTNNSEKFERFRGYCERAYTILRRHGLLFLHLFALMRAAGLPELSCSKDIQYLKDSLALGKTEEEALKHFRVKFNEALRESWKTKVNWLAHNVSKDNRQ
- Sequence (P27986 whole entry partner): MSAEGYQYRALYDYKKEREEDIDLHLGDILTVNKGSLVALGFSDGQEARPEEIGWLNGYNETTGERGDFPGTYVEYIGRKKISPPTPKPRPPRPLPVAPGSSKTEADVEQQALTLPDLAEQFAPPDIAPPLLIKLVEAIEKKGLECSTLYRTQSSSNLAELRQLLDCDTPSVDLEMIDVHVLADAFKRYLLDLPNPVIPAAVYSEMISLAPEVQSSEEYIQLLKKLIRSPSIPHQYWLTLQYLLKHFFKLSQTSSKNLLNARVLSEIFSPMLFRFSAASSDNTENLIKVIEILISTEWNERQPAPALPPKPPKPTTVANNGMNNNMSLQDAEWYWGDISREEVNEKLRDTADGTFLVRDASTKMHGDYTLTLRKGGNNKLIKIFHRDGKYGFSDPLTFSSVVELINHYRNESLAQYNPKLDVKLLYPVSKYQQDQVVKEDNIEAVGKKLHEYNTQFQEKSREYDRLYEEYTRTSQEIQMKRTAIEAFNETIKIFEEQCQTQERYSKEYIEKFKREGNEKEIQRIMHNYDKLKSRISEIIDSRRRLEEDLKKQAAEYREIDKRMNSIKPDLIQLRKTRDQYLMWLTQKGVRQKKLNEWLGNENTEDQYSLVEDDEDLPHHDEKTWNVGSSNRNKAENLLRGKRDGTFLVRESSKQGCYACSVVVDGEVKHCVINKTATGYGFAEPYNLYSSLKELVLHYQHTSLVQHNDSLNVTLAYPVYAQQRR
- Test Summary: PI3Kδ Scintillation Proximity Assay
- Setup Conditions: read-out: PI3K-delta SPA IC50
Structures can show the parent of a compound that is named as a salt.
Readout Type: IC50

Request: Returns the measured IC50 for the input compound. Input: "Cc1[nH]c(-c2cc(-c3cncc(N4CCOCC4)c3)ccn2)nc1C(=O)N(C)C(C)C"
Result: ≤ 500 nM

Request: Returns the measured IC50 for the input compound. Input: Cc1[nH]c(-c2cc(-c3cncc(N4CCOCC4)c3)ccn2)nc1C(=O)N[C@H]1CCN(Cc2ccccc2)C1 [Example 279, trifluoroacetate salt]
Result: ≤ 50 nM

Request: Returns the measured IC50 for the input compound. Input: "COc1cncc(-c2ccnc(-c3cnc(N)[nH]3)c2)c1"
Result: > 500 nM

Request: Returns the measured IC50 for the input compound. Input: O=C(O)c1cccc(Cn2cc(-c3ccnc(-c4ncc(-c5ccccc5)[nH]4)c3)cn2)c1 [Example 34, trifluoroacetate salt]
Result: ≤ 500 nM

Request: Returns the measured IC50 for the input compound. Input: O=C(O)CCn1cc(-c2ccnc(-c3ncc(-c4ccccc4)[nH]3)c2)cn1 [Example 57, trifluoroacetate salt]
Result: ≤ 100 nM

Request: Returns the measured IC50 for the input compound. Input: Clc1ccccc1Cn1cc(-c2ccnc(-c3ncc(-c4ccccc4)[nH]3)c2)cn1 [Example 7, trifluoroacetate salt]
Result: ≤ 500 nM

Request: Returns the measured IC50 for the input compound. Input: "O=C(Nc1cncc(-c2ccnc(-c3ncc(-c4ccccc4)[nH]3)c2)c1)C1CCCC1"
Result: ≤ 100 nM

Request: Returns the measured IC50 for the input compound. Input: "Cc1[nH]c(-c2cc(-c3cncc(N4CCOCC4)c3)ccn2)nc1C(=O)NC1CCCC1"
Result: ≤ 50 nM

Request: Returns the measured IC50 for the input compound. Input: Cc1nc(-c2cc(C3=CCCN(S(=O)(=O)c4ccc(Cl)cc4)C3)ccn2)[nH]c1C [Example 221, trifluoroacetate salt]
Result: ≤ 500 nM

Request: Returns the measured IC50 for the input compound. Input: N#Cc1cccc(Cn2cc(-c3ccnc(-c4ncc(-c5ccccc5)[nH]4)c3)cn2)c1 [Example 20, trifluoroacetate salt]
Result: > 500 nM

Request: Returns the measured IC50 for the input compound. Input: Cc1nc(-c2cc(-c3cncc(C(=O)N4CCC(Cc5ccccc5)CC4)c3)ccn2)[nH]c1C [Example 189, trifluoroacetate salt]
Result: ≤ 50 nM

Request: Returns the measured IC50 for the input compound. Input: Cc1[nH]c(-c2cc(-c3cncc(N4CCOCC4)c3)ccn2)nc1C(=O)N[C@H]1CCOC1 [Example 271, trifluoroacetate salt]
Result: ≤ 50 nM

Request: Returns the measured IC50 for the input compound. Input: Cc1nc(-c2cc(-c3cncc(C(=O)N4CCC(c5ccccc5)C4)c3)ccn2)[nH]c1C (racemic) [Example 181, trifluoroacetate salt]
Result: ≤ 50 nM

Request: Returns the measured IC50 for the input compound. Input: CCNC(=O)Nc1cncc(-c2ccnc(-c3ncc(-c4ccccc4)[nH]3)c2)c1 [Example 139, Trifluoroacetate Salt]
Result: ≤ 100 nM

----------
Kindly state pIC50 for each of the entries shown.
- Measurement Target: PI3Kγ (p110γ) Recombinant Human Protein (Homo sapiens (Human))
- Sequence (P48736 whole entry): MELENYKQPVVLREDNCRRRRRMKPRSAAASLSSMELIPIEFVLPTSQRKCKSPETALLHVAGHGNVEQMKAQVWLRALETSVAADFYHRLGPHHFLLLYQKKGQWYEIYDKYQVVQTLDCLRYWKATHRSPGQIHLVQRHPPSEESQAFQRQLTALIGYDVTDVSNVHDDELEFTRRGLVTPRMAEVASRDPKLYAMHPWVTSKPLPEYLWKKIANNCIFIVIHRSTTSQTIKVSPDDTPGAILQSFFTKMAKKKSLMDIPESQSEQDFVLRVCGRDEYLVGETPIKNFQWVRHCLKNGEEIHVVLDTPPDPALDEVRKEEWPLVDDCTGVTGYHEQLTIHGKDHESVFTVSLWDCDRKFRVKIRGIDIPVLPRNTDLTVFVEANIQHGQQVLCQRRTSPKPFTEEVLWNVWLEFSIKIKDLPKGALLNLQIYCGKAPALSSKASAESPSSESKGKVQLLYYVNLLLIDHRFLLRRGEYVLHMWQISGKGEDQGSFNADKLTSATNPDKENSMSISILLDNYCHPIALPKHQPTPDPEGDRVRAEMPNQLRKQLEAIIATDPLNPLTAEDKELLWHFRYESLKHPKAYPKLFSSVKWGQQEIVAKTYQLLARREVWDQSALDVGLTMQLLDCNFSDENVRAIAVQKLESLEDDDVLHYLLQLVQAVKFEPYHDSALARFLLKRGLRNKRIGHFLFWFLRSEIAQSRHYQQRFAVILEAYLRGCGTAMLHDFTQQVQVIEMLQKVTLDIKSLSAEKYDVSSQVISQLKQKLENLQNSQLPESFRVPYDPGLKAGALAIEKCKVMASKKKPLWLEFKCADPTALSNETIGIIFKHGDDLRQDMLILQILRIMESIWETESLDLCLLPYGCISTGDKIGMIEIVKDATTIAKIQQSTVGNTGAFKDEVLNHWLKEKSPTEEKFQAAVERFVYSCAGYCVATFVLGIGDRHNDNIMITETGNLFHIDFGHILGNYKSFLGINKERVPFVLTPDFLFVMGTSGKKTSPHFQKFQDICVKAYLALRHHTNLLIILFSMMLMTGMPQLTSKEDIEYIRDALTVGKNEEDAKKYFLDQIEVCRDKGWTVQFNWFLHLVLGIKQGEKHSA
- Test Summary: PI3K-γ Scintillation Proximity Assay
- Setup Conditions: read-out: PI3K-gamma SPA IC50
pIC50: −log10 of the molar value. Counter-ions that a name gives are not always drawn.

Request: Please tell me: pIC50 of CCNC(=O)c1nc(-c2cc(-c3cncc(S(C)(=O)=O)c3)ccn2)[nH]c1C [Example 252, trifluoroacetate salt] , system PI3Kγ (p110γ) Recombinant Human Protein (Homo sapiens (Human))?
Result: ≥ 7.30

Request: Please tell me: pIC50 of Cc1[nH]c(-c2cc(-c3cncc(S(C)(=O)=O)c3)ccn2)nc1C(=O)N[C@@H]1CCOC1 [Example 256, trifluoroacetate salt] , system PI3Kγ (p110γ) Recombinant Human Protein (Homo sapiens (Human))?
Result: ≥ 7.30

Request: Please tell me: pIC50 of "Cc1nc(-c2cc(-c3cncc(C(=O)N4CCN(C5CCN(C)CC5)CC4)c3)ccn2)[nH]c1C" , system PI3Kγ (p110γ) Recombinant Human Protein (Homo sapiens (Human))?
Result: ≥ 7.30

Request: Please tell me: pIC50 of CCNC(=O)Nc1cncc(-c2ccnc(-c3ncc(-c4ccccc4)[nH]3)c2)c1 [Example 139, Trifluoroacetate Salt] , system PI3Kγ (p110γ) Recombinant Human Protein (Homo sapiens (Human))?
Result: ≥ 6.30

Request: Please tell me: pIC50 of "Cc1nc(-c2cc(-c3cncc(N4CC[C@@H](O)C4)c3)ccn2)[nH]c1C" , system PI3Kγ (p110γ) Recombinant Human Protein (Homo sapiens (Human))?
Result: ≥ 7.30

Request: Please tell me: pIC50 of Cc1nc(-c2cc(-c3cncc(C(=O)NCCC4CCOCC4)c3)ccn2)[nH]c1C [Example 164, trifluoroacetate salt] , system PI3Kγ (p110γ) Recombinant Human Protein (Homo sapiens (Human))?
Result: ≥ 6.30

Request: Please tell me: pIC50 of "Cc1nc(-c2cc(-c3cncc(NCC4CCOCC4)c3)ccn2)[nH]c1C" , system PI3Kγ (p110γ) Recombinant Human Protein (Homo sapiens (Human))?
Result: ≥ 7.30

Request: Please tell me: pIC50 of Nc1cncc(-c2ccnc(-c3ncc(-c4ccccc4)[nH]3)c2)c1 [Example 127, Trifluoroacetate Salt] , system PI3Kγ (p110γ) Recombinant Human Protein (Homo sapiens (Human))?
Result: ≥ 7.30

Request: Please tell me: pIC50 of "CNCc1nc(-c2cc(-c3cncc(N4CCOCC4)c3)ccn2)[nH]c1C" , system PI3Kγ (p110γ) Recombinant Human Protein (Homo sapiens (Human))?
Result: < 6.30

Request: Please tell me: pIC50 of Cc1nc(-c2cc(C3=CCN(S(C)(=O)=O)C3)ccn2)[nH]c1C [Example 227, trifluoroacetate salt] , system PI3Kγ (p110γ) Recombinant Human Protein (Homo sapiens (Human))?
Result: < 6.30

Request: Please tell me: pIC50 of "Cc1[nH]c(-c2cc(-c3cncc(S(C)(=O)=O)c3)ccn2)nc1C(=O)N1CC(C#N)C1" , system PI3Kγ (p110γ) Recombinant Human Protein (Homo sapiens (Human))?
Result: ≥ 7.30

Request: Please tell me: pIC50 of Cc1[nH]c(-c2cc(-c3cncc(S(C)(=O)=O)c3)ccn2)nc1C(=O)O [Example 119, trifluoroacetate salt] , system PI3Kγ (p110γ) Recombinant Human Protein (Homo sapiens (Human))?
Result: ≥ 7.30

Request: Please tell me: pIC50 of Cc1nc(-c2cc(C3=CCN(CC4CCOCC4)C3)ccn2)[nH]c1C [Example 230, trifluoroacetate salt] , system PI3Kγ (p110γ) Recombinant Human Protein (Homo sapiens (Human))?
Result: < 6.30

Request: Please tell me: pIC50 of CCCCNc1nnc(-c2cc(-c3cncc(OC)c3)ccn2)[nH]1 [Example 66, Trifluoroacetate Salt] , system PI3Kγ (p110γ) Recombinant Human Protein (Homo sapiens (Human))?
Result: ≥ 6.30

Request: Please tell me: pIC50 of COc1cncc(-c2ccnc(-c3ncc(C(F)(F)F)[nH]3)c2)c1 [Example 79, trifluoroacetate salt] , system PI3Kγ (p110γ) Recombinant Human Protein (Homo sapiens (Human))?
Result: ≥ 7.30
